- assayed_target: PRMT5 (Homo sapiens)
- Construct: purchased Viva (custom protein)
- Sequence (O14744 whole entry): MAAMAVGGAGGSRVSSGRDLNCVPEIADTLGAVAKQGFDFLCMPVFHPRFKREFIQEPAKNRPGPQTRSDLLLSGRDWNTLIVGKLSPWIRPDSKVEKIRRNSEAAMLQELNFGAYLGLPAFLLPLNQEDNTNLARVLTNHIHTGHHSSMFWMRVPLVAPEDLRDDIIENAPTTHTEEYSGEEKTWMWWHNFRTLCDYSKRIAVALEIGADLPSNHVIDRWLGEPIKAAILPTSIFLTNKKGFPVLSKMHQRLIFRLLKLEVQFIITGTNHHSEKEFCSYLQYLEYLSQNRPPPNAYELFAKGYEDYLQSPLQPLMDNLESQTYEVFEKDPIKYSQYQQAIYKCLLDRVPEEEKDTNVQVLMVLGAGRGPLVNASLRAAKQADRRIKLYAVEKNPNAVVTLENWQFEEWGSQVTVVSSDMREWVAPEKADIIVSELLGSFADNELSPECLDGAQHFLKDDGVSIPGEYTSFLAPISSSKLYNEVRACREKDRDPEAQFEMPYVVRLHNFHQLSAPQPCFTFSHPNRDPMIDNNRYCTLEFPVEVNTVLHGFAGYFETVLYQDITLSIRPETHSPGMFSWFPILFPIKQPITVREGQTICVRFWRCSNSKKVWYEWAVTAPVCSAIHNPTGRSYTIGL
- Sequence (Q9BQA1 whole entry partner): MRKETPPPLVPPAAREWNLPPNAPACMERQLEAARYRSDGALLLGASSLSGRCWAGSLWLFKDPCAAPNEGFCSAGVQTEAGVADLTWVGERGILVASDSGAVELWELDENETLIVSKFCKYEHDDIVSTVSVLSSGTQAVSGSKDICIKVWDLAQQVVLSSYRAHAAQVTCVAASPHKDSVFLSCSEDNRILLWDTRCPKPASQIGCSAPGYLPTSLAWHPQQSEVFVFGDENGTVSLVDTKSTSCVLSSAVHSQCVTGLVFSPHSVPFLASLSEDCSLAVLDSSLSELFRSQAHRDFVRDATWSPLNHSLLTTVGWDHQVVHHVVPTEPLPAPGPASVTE
- test_protocol: PRMT5 biochemical IC50 assay with no cofactor
- experimental_setup: PRMT5, no cofactor; read-out: No Cofactor/rel IC50
Measured IC50 accompanies every entry in the list below.

The compound listed as CNc1cccc([C@@H]2CC[C@@H](C)CN2C(=O)C(=O)Nc2cncc(C(N)=O)c2)c1 (single isomer, unassigned) [Compound 348] shows IC50 equal to 50 to 500 nM

The compound listed as COc1ncc(NC(=O)C(=O)N2C[C@H](C)CC[C@H]2c2ccc3cnccc3c2)cc1C(N)=O (single isomer, unassigned) [Compound 933] has a reported IC50 of > 500 nM

IC50 reading for C[C@@H]1CCC[C@@H]2CN(C(=O)C(=O)Nc3cncc(C(N)=O)c3)CC[C@@H]21 (racemic) [Compound 536] : > 500 nM

Looking up CC(=O)Nc1ccc([C@H]2CC[C@H](C)CN2C(=O)C(=O)Nc2cncc(C(N)=O)c2)cc1 (single isomer, unassigned) [Compound 452] , I found its IC50 recorded as > 500 nM

The compound listed as Cc1cc(NC(=O)C(=O)N2C[C@@H](C)CC[C@@H]2c2ccc3sc(C4CN(C)C4)nc3c2)cnc1C [Compound 1123] has a reported IC50 of < 50 nM

Query compound follows.
IC50 for Cc1cc(NC(=O)C(=O)N2C[C@H](C)CC[C@H]2c2ccc3scc(CCN(C)C)c3c2)cnc1N (racemic) [Compound 1142] is 50 to 500 nM
